Overview of reported Cmax across a group of compounds:
testMethodNotes: Cmax in BALB/C mouse at 50 mg/kg, po
Format: ADME, organism-based
Design: dose 50 mg/kg, route oral
testParameters: in vivo
Answer format reminder: number followed by unit.

# smilesText, result
records = [
    ("Nc1nc(N2CCC(N)CC2)c2sc(-c3ccc(C(F)(F)F)cc3)cc2n1", "1360 nM"),
    ("CNc1nc(NC2CCNCC2)c2sc(-c3ccc(C(F)(F)F)cc3)cc2n1", "2470 nM"),
]

Proceed to the following item.
Tell me measured Cmax for `CNc1nc(N2CCC(N)CC2)c2sc(-c3ccc(C(F)(F)F)cc3)cc2n1` please.
3690 nM

Where these numbers come from: ChEMBL document CHEMBL3616374
